# measurement.protocol: Dog liver microsomal stability
# Type: in vitro ADME
# condition.details: dog liver microsomes 0.5 mg/mL, compound 0.5 μM; read-out: Dog Liver Microsomal Stability CLint (uL/min/mg liver)
# microsomal CLint values compiled below

{"columns": ["mol.smiles", "microsomal CLint, µL/min/mg"],
 "data": [
  ["CC(=O)[C@H]1CC[C@H]2[C@@H]3CC[C@H]4C[C@](C)(OC(=O)COC(=O)C(C)(C)N)CC[C@]4(C)[C@H]3CC[C@]12C", 69],
  ["CC(=O)[C@H]1CC[C@H]2[C@@H]3CC[C@H]4C[C@](C)(OC(=O)COC(=O)C(C)(C)OC(=O)CN(CCO)CCO)CC[C@]4(C)[C@H]3CC[C@]12C", 129],
  ["CC(=O)[C@H]1CC[C@H]2[C@@H]3CC[C@H]4C[C@](C)(O)CC[C@]4(C)[C@H]3CC[C@]12C", 27.8],
  ["CC(=O)[C@H]1CC[C@H]2[C@@H]3CC[C@H]4C[C@](C)(OC(=O)CN)CC[C@]4(C)[C@H]3CC[C@]12C", 4.95],
  ["CC(=O)[C@H]1CC[C@H]2[C@@H]3CC[C@H]4C[C@](C)(OC(=O)CNC(C)(C)C(=O)O)CC[C@]4(C)[C@H]3CC[C@]12C", 17],
  ["CC(=O)OCCN(CCOC(C)=O)CC(=O)OC(C)(C)C(=O)OCC(=O)O[C@]1(C)CC[C@@]2(C)[C@@H](CC[C@@H]3[C@@H]2CC[C@]2(C)[C@@H](C(C)=O)CC[C@@H]32)C1", 224]
]}
